Hi there, I'd appreciate the recorded GI50 for every entry that follows.
Test system: HL-60
protocol: NCI tumour cell line growth inhibition, 48 h
The source made the active and inactive calls. Rule as the data show it: active = GI50 up to about 1.1 µM and inactive = higher.

Q: Please report the recorded GI50 for `O=C(CC(=O)c1cccc2ccccc12)C(=O)Nc1nccs1` .
Result: > 100 µM (inactive)

Q: Let us now turn to `O=C(Cn1c2c(c3ccccc31)CCCC2)N1CCCCC1`
Result: > 100 µM (inactive)

Q: Also C=C1C(=O)OC2/C=C(\C)C(=O)CC3OC(C)(C)OC3(C)CC(OC(=O)/C(C)=C/C)C12 (stereo not given) ?
Result: 3.26 µM (inactive)

Q: Now consider `N#CC(C#N)=C(N)/C(C#N)=C/c1ccc(O)c(O)c1` .
Result: 22.6 µM (inactive)

Q: Entry to check: `CCc1cccc(C(C)C)c1NC1=C([n+]2ccc(C)cc2)C(=O)c2ccccc2C1=O.[O-][Cl+3]([O-])([O-])[O-]`
Result: 1.18 µM (inactive)

Q: Let us now turn to Cc1c(/N=N/c2ccc(Cl)cc2)c(-c2ccccc2)n(C2OC(CO)C(O)C(O)C2O)c(=S)c1C#N (stereo not given)
Result: 32.6 µM (inactive)

Q: Next: N#CC(/C(CCCC(=O)Nc1cccc([N+](=O)[O-])c1)=N\NC(=O)c1c(O)ccc2ccccc12)c1nc2ccccc2s1 (stereo not given)
Result: 3.16 µM (inactive)

Q: Please do the same for `CCCCOc1ccc(/C=C/C2=[N+](CCO)CCO2)cc1` as well.
Result: 21.7 µM (inactive)

Q: And the next one, `CNS(=O)(=O)NNS(=O)(=O)c1ccc(F)cc1` ?
Result: > 100 µM (inactive)

Q: Also, COC(=O)CCC(=O)c1ccc2c(c1)CC1(C2)Cc2ccc3c(c2C1)CCCC3=O (stereo not given) please.
Result: 3.94 µM (inactive)

Hello, the source for this data is ChEMBL document CHEMBL1201862, in case you need it.
